I'd appreciate it if you could supply half-life at 0.1 µM values for the items below.
# test-protocol: Half life in rat whole blood at 0.1 uM by LC-MS/MS analysis
# Format: ADME, tissue-based
Just the number in min, nothing appended.

Given the entry COc1ccc(-c2ccc(C(=O)O)c(CO)c2)n2nc(C3(C(=O)OCC(C)C)CC3)nc12 , report its measured half-life at 0.1 µM. 34

Given the entry COc1ccc(-c2ccc3c(c2)COC3=O)n2nc(C3(C(=O)OCC(C)C)CC3)nc12 , report its measured half-life at 0.1 µM. 2

###

# test-protocol: Half life in human keratinocytes at 1 uM by LC-MS/MS analysis
# Type: ADME, cell-based, Keratinocyte
I'd appreciate it if you could supply half-life at 1 µM values for the items below.

Given the entry COc1ccc(-c2ccc3c(c2)COC3=O)n2nc(C3(C(=O)OCC(C)C)CC3)nc12 , report its measured half-life at 1 µM. > 720 min

Given the entry COc1ccc(-c2ccc3c(c2)COC3=O)n2nc(C3(C(=O)OC(C)(C)C)CC3)nc12 , report its measured half-life at 1 µM. > 720 min

Given the entry COc1ccc(-c2ccc3c(c2)COC3=O)n2nc(C3(C(=O)NCC(C)C)CC3)nc12 , report its measured half-life at 1 µM. 600 min

Given the entry CCOC(=O)C1(c2nc3c(OC)ccc(-c4ccc5c(c4)COC5=O)n3n2)CC1 , report its measured half-life at 1 µM. > 720 min

Given the entry COc1ccc(-c2ccc3c(c2)COC3=O)n2nc(C3(C(=O)OC[C@H](C)CO)CC3)nc12 , report its measured half-life at 1 µM. > 720 min

Given the entry COc1ccc(-c2ccc3c(c2)COC3=O)n2nc(C3(C(=O)OCC(C)(C)O)CC3)nc12 , report its measured half-life at 1 µM. > 720 min

Given the entry COc1ccc(-c2ccc3c(c2)COC3=O)n2nc(C3(C(=O)OC4CCOCC4)CC3)nc12 , report its measured half-life at 1 µM. > 720 min

Given the entry COc1ccc(-c2cccc(C#N)c2)n2nc(C3(COC(=O)C(C)C)CC3)nc12 , report its measured half-life at 1 µM. 72 min

Given the entry COc1ccc(-c2cccc(C#N)c2)n2nc(C3(C(=O)OCC(C)C)CC3)nc12 , report its measured half-life at 1 µM. > 720 min
